System tested: recombinant perforin (UniProt P10820)
Sequence (P10820 whole entry): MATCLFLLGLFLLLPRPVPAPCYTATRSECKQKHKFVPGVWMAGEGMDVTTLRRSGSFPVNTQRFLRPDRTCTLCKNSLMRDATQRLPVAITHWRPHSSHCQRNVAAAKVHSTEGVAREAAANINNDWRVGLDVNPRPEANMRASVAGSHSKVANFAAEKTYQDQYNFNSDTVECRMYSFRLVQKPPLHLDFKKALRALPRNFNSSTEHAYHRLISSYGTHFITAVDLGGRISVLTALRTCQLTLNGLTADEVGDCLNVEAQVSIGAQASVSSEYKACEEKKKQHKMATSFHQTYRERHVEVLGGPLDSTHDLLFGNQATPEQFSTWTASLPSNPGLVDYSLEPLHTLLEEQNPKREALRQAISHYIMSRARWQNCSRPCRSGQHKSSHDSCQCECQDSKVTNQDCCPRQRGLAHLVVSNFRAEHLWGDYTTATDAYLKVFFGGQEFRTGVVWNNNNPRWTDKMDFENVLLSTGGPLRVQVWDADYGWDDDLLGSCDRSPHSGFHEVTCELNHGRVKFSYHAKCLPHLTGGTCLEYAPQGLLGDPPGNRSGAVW
Format: cell-based
Applied conditions: read-out: Jurkat IC50; recombinant perforin pre-incubated 30 min with compound; 51Cr-labelled Jurkat cells, 0.1% BSA, 37° C. 4 hours
Recorded IC50, one value per entry.

Molecule | Measurement qualifier | IC50 / nM
O=C1NC(=S)N/C1=C/c1ccc(-c2ccc3c(c2)CN(CCCN2CCCC2)C3=O)s1 [Cmpd 77] | > | 20000
O=C1NC(=S)N/C1=C\c1ccc(-c2ccc3c(c2)CNC3=O)cn1 [Cmpd 51] | = | 630
O=C1NC(=S)NC1=Cc1ccc(-c2ccc3c(c2)CNC3=O)cc1 [Cmpd 48] | = | 5550
CN1CCc2cc(-c3ccc(/C=C4\NC(=S)NC4=O)s3)ccc2C1=O [Cmpd 84] | = | 2330
O=C1NC(=S)N/C1=C\c1csc(-c2ccc3c(c2)COC3=O)n1 [Cmpd 57] | = | 340

Cited source: patent US20130065897A1
